# Test system: Escherichia coli
# Protocol text: Inhibitory activity (apE=log(1/EII50)) against dihydropteroate synthase from Escherichia coli
The entries below come with measured apE values attached.
Value kind: apE

{"columns": ["Smiles str", "Target of assay", "Value kind", "Test value"],
 "data": [
  ["COc1ccc(S(=O)(=O)c2ccc(N)cc2)c(OC)c1", "Escherichia coli", "apE", -0.51],
  ["COc1cc(C)c(S(=O)(=O)c2ccc(N)cc2)c(C)c1", "Escherichia coli", "apE", -0.25],
  ["Cc1ccc(S(=O)(=O)c2ccc(N)cc2)c(C)c1", "Escherichia coli", "apE", -0.28],
  ["Nc1ccc(S(=O)(=O)c2ccc(Cl)cc2Cl)cc1", "Escherichia coli", "apE", -0.35],
  ["COc1cc(C)cc(C)c1S(=O)(=O)c1ccc(N)cc1", "Escherichia coli", "apE", -0.48],
  ["Nc1ccc(S(=O)(=O)c2ccc([N+](=O)[O-])cc2[N+](=O)[O-])cc1", "Escherichia coli", "apE", -1.56],
  ["Nc1ccc(S(=O)(=O)c2ccc(N)cc2N)cc1", "Escherichia coli", "apE", -0.2],
  ["Nc1ccc(S(=O)(=O)c2ccc(N)cc2)cc1", "Escherichia coli", "apE", -0.42],
  ["Nc1ccc(S(=O)(=O)c2c(Cl)cc(Cl)cc2Cl)cc1", "Escherichia coli", "apE", -0.52],
  ["COc1cc(OC)c(S(=O)(=O)c2ccc(N)cc2)c(OC)c1", "Escherichia coli", "apE", -1.11],
  ["COc1ccc(S(=O)(=O)c2ccc(N)cc2)c(C)c1", "Escherichia coli", "apE", -0.25],
  ["Cc1cc(C)c(S(=O)(=O)c2ccc(N)cc2)c(C)c1", "Escherichia coli", "apE", -0.23]
]}

Cited source for all entries: ChEMBL document CHEMBL1124359
